# system.name: OGA (Homo sapiens)
# Construct: endogenous in cells; host or cells: HEK293 cells inducible for P301L mutant human Tau (2N4R)
# assay.info: OGA cellular assay: ICC detection of O-GlcNAcylated proteins in HEK293 cells inducible for P301L mutant human Tau
# Format: cell-based
# assay.context: 6 hours incubation
Examples of molecules with documented Emax follow.
# number only, unit % dropped from output

Look over these answered cases.
>  <molecule>
CC(=O)Nc1ncc(CN2CCC[C@H](c3cc4ncccc4[nH]3)C2)s1 (single isomer, unassigned)

>  <system.name>
OGA (Homo sapiens)

>  <measurement.kind>
Emax

>  <display.unit>
%

>  <value.reported>
114

$$$$
>  <molecule>
CC(=O)Nc1ncc(CN2CCCC(c3nc4ncccc4[nH]3)C2)s1 (single isomer, unassigned)

>  <system.name>
OGA (Homo sapiens)

>  <measurement.kind>
Emax

>  <display.unit>
%

>  <value.reported>
109

$$$$
>  <molecule>
CC(=O)Nc1ncc(CN2CCCC(c3nc4cccnc4n3C)C2)s1 (stereo not drawn)

>  <system.name>
OGA (Homo sapiens)

>  <measurement.kind>
Emax

>  <display.unit>
%

>  <value.reported>
101

$$$$
>  <molecule>
CC(c1ccc2c(c1)OCCO2)N1CCCC(c2cc3ncccc3n2C)C1 (stereo not drawn)

>  <system.name>
OGA (Homo sapiens)

>  <measurement.kind>
Emax

>  <display.unit>
%

>  <value.reported>
75.1

$$$$
>  <molecule>
CC(=O)Nc1ncc(CN2CCC(Cc3cc4ncccc4n3C)C2)s1 (stereo not drawn)

>  <system.name>
OGA (Homo sapiens)

>  <measurement.kind>
Emax

>  <display.unit>
%

>  <value.reported>
121

$$$$

Data request: Which Emax is listed for O=C(CN1CCCC(c2cc3ncccc3[nH]2)C1)N1CCCC1 (stereo not drawn) ?
Data returned: 7.2

Data request: Which Emax is listed for CC(=O)Nc1ncc(CN2CCCC(c3cc4cnccc4[nH]3)C2)s1 (stereo not drawn) ?
Data returned: 120

Data request: Which Emax is listed for CC(=O)Nc1ncc(CN2CCCC(c3cc4cccnc4[nH]3)C2)s1 (stereo not drawn) ?
Data returned: 113

Data request: Which Emax is listed for CC(=O)Nc1ncc(CN2CCCC(c3cc4ccncc4[nH]3)C2)s1 (stereo not drawn) ?
Data returned: 103

Data request: Which Emax is listed for CC(c1ccc2c(c1)OCO2)N1CCCC(c2cc3ncccc3[nH]2)C1 (single isomer, unassigned) ?
Data returned: 95.8

Data request: Which Emax is listed for CC(=O)Nc1ncc(CN2CC[C@@H](C)[C@H](c3cc4ncccc4[nH]3)C2)s1 (racemic) ?
Data returned: 114

Data request: Which Emax is listed for CC(=O)Nc1ncc(S(=O)(=O)N2CCCC(c3cc4ncccc4[nH]3)C2)s1 (single isomer, unassigned) ?
Data returned: 44.3

Data request: Which Emax is listed for CC(=O)Nc1ncc(CN2CCC(Cc3cc4ncccc4[nH]3)C2)s1 (stereo not drawn) ?
Data returned: 98

Data request: Which Emax is listed for c1cnc2cc(C3CCCN(Cc4ccc5c(c4)OCCO5)C3)[nH]c2c1 (stereo not drawn) ?
Data returned: 90.3

Data request: Which Emax is listed for CC(=O)Nc1ncc(CN2CCCC(c3nc4ncccc4n3C)C2)s1 (stereo not drawn) ?
Data returned: 95.6

* * *

# system.name: OGA (Homo sapiens, UniProt O60502)
# Construct: endogenous in cells; host or cells: HEK293 cells inducible for P301L mutant human Tau (2N4R)
# assay.info: OGA cellular assay: ICC detection of O-GlcNAcylated proteins in HEK293 cells inducible for P301L mutant human Tau
# Assay type: cell-based
# assay.context: 6 hours incubation, read-out: Cellular hOGA, pEC50 (converted)
measurement.kind: EC50

Look over these answered cases.
>  <compound>
O=C(CN1CCCC(c2cc3ncccc3[nH]2)C1)N1CCCC1 (stereo not drawn) [Compound 49]

>  <EC50>
> 10 µM

$$$$
>  <compound>
CC(=O)Nc1ncc(CN2CCCC(Cc3cc4ncccc4n3C)C2)s1 (stereo not drawn) [Compound 26]

>  <EC50>
< 0.00457 µM

$$$$

// switching to the query compound
Data request: Which EC50 is listed for CC(=O)Nc1ncc(S(=O)(=O)N2CCCC(c3cc4ncccc4[nH]3)C2)s1 (single isomer, unassigned) [Compound 4] ?
Data returned: > 10 µM

* * *

# system.name: recombinant human Meningioma Expressed Antigen 5 (MGEA5), also referred to as O-GlcNAcase (OGA) (Homo sapiens, UniProt O60502)
# Construct: Full length OGA enzyme was purchased at OriGene (cat # TP322411); purchased OriGene TP322411
# assay.info: OGA biochemical assay: inhibition of FM-GlcNAc hydrolysis, fluorescence (protocol A 10 nM OGA, 1 h; protocol B 2 nM OGA, 6 h)
# assay.context: Enzymatic protocol B (2 nM OGA, 6 h); read-out: Enzymatic hOGA; pIC50 (converted)
Examples of compounds with documented log10(IC50) follow.
Units before log transform: µM; reported quantity: IC50; transform: log10.

Look over these answered cases.
>  <compound>
CC(=O)Nc1ncc(CN2CCC(Cc3cc4cccnc4n3C)C2)s1 (stereo not shown) [Compound 60]

>  <log10(IC50)>
-2.03

$$$$
>  <compound>
CC(c1ccc2c(c1)OCO2)N1CCCC(c2cc3ncccc3n2C)C1 (single isomer, unassigned) [Compound 45]

>  <log10(IC50)>
-1.56

$$$$
>  <compound>
CC(c1ccc2c(c1)OCCO2)N1CCCC(c2cc3ncccc3[nH]2)C1 (single isomer, unassigned) [Compound 35]

>  <log10(IC50)>
0.39

$$$$
>  <compound>
CC(=O)Nc1ncc(CN2CCCC(c3cc4ccncc4[nH]3)C2)s1 (stereo not shown) [Compound 11]

>  <log10(IC50)>
-1.13

$$$$
>  <compound>
CC(c1ccc2c(c1)OCCO2)N1CCCC(c2cc3ncccc3[nH]2)C1 (racemic) [Compound 33]

>  <log10(IC50)>
-1.26

$$$$
>  <compound>
CC(=O)Nc1ncc(CN2CCOC(c3cc4ncccc4[nH]3)C2)s1 (stereo not shown) [Compound 27]

>  <log10(IC50)>
0.50

$$$$
>  <compound>
CC(c1ccc2c(c1)OCCO2)N1CCCC(c2cc3ncccc3[nH]2)C1 (single isomer, unassigned) [Compound 36]

>  <log10(IC50)>
-1.96

$$$$

// switching to the query compound
Data request: Which log10(IC50) is listed for CC(c1ccc2c(c1)OCO2)N1CCCC(c2cc3ncccc3[nH]2)C1 (single isomer, unassigned) [Compound 32] ?
Data returned: 0.25

* * *

# system.name: recombinant human Meningioma Expressed Antigen 5 (MGEA5), also referred to as O-GlcNAcase (OGA) (Homo sapiens, UniProt O60502)
# Construct: Full length OGA enzyme was purchased at OriGene (cat # TP322411); purchased OriGene TP322411
# assay.info: OGA biochemical assay: inhibition of FM-GlcNAc hydrolysis, fluorescence (protocol A 10 nM OGA, 1 h; protocol B 2 nM OGA, 6 h)
# assay.context: Enzymatic protocol B (2 nM OGA, 6 h); read-out: Enzymatic Emax (%)
Examples of molecules with documented Emax follow.
# number only, unit % dropped from output

Look over these answered cases.
>  <molecule>
CC(=O)Nc1ncc(CN2CC[C@@H](C)[C@H](c3cc4ncccc4[nH]3)C2)s1 (racemic)

>  <Emax (%)>
102

$$$$
>  <molecule>
CC(=O)Nc1ncc(CN2CCC(Cc3cc4ncccc4[nH]3)C2)s1 (centres unmarked)

>  <Emax (%)>
99.8

$$$$
>  <molecule>
CC(c1ccc2c(c1)OCCO2)N1CCCC(c2cc3ncccc3[nH]2)C1 (racemic) [Compound 33]

>  <Emax (%)>
98.6

$$$$

Data request: Which Emax is listed for CC(=O)Nc1ncc(CN2CCCC(c3cc4ccncc4[nH]3)C2)s1 (centres unmarked) ?
Data returned: 100

Data request: Which Emax is listed for CC(=O)Nc1ncc(CN2CCC[C@H](c3cc4ncccc4[nH]3)C2)s1 (single isomer, unassigned) ?
Data returned: 100

* * *

# system.name: recombinant human Meningioma Expressed Antigen 5 (MGEA5), also referred to as O-GlcNAcase (OGA) (Homo sapiens, UniProt O60502)
# Construct: Full length OGA enzyme was purchased at OriGene (cat # TP322411); purchased OriGene TP322411
# assay.info: OGA biochemical assay: inhibition of FM-GlcNAc hydrolysis, fluorescence (protocol A 10 nM OGA, 1 h; protocol B 2 nM OGA, 6 h)
# assay.context: Enzymatic protocol B (2 nM OGA, 6 h); read-out: Enzymatic hOGA; pIC50 (converted)
Examples of compounds with documented IC50 follow.

Data request: Which IC50 is listed for Cn1c(C2CCCN(Cc3ccc4cccnc4c3)C2)cc2ncccc21 (stereo not shown) [Compound 63] ?
Data returned: > 10000 nM

Data request: Which IC50 is listed for CC(c1ccc2c(c1)OCO2)N1CCCC(c2cc3ncccc3[nH]2)C1 (single isomer, unassigned) [Compound 29] ?
Data returned: 3720 nM

Data request: Which IC50 is listed for CC(c1ccc2c(c1)OCCO2)N1CCCC(c2cc3ncccc3[nH]2)C1 (single isomer, unassigned) [Compound 34] ?
Data returned: 708 nM

Data request: Which IC50 is listed for CC(=O)N(C)c1ncc(CN2CCCC(c3cc4ncccc4[nH]3)C2)s1 (stereo not shown) [Compound 10] ?
Data returned: 1020 nM

// provenance: patent US20190359609A1
